ASSAY TARGET: T1, antibody raised against ETAG
T1 construct: Coated at 500 ng/well; also called E-tag antibody
ASSAY REMARKS: phage ELISA
Provide the recorded ETAG (OD) for the entries that follow.
Report field: quantity (unit follows the number).

DGRGWGAMWMRWAEGLGADIAAAGAPVPYPDPLEPRP [DGI-2-20R-4-G114]; 16.5 OD
VTGTRFRGFAVACVRMGTWHAAAGAPVPYPDPLEPRP [DGI-2-20F-PP-F2]; 1.9 OD
SWACGLLWPGECGSQVARRGAAAGAPVPYPDPLEPRP [DGI-2-20R-3-D127]; 15.4 OD

Please report ETAG (OD) for every entry that follows.
1. VLGADAGMIWFMDGCGIRCRAAAGAPVPYPDPLEPRP [DGI-2-20R-4-E6]
2. DGKHLTKWSGRGWWSAWVGGAAAGAPVPYPDPLEPRP [DGI-2-20R-3-B12]
3. PVYRVAMCRISVGCSAGAWFAAAGAPVPYPDPLEPRP [DGI-2-20F-PP-C12]
4. VVHTRAWGSWAYGFVLRNRGAAAGAPVPYPDPLEPRP [DGI-2-20F-PP-F10]

Reply:
["19.1 OD", "15.5 OD", "36.4 OD", "42.5 OD"]

Batch: ETAG (OD) for all items listed.
1. RGVNSDMPRLYICRADGQGQAAAGAPVPYPDPLEPRP [DGI-2-20F-PP-H6]
2. VCGQRVARMQLNKTIRKLDSAAAGAPVPYPDPLEPRP [DGI-2-20F-PP-A6]
3. DGI-2-40F-3-C424 (peptide) peptide: TVKFQGVVQERSRIAGFRYCGDHAVSWGLAGCPALRDKLQAAAGAPVPYPDPLEPRP

Reply:
1: 18.9 OD; 2: 35.1 OD; 3: 14.8 OD

State recorded ETAG (OD) for all listed binders.
1. RSIRLQLIDEACQFFDGLCTAAAGAPVPYPDPLEPRP [DGI-2-20R-3-A8]
2. WGCVFRQWASGSGAGCARRHAAAGAPVPYPDPLEPRP [DGI-2-20R-3-D9]
3. GRAGTSMTELVAWGFVQRVGAAAGAPVPYPDPLEPRP [DGI-2-20F-PP-H10]

Reply:
1: 15.3 OD; 2: 19.7 OD; 3: 13 OD
